Assay: yeast display, Sf9 membrane polyspecificity reagent, FACS + sequencing; frameworks hold sequencing errors
assay endpoint: polyreactivity (PSR sort gate)

Check out these entries, answers already filled in.
ordered residues	polyreactivity (PSR sort gate)
QVQLVESGGGLVQAGGSLRLSCAASGFTFRWYAMGWYRQAPGKERELVAAITYRGGRTYYADSVKGRFTISRDNAKNTVYLQMNSLKPEDTAVYYCAAKLSLNGRYDYWGQGTQVNVSS	high polyreactivity
QVQLVESGGGLVQAGGSLRLSCAASGSTFGLYAMGWYRQEPGKERELVAAITWRASSTYYADSVKGRFTISRDNAKNTVYLQMNSLKPEDTAVYYCAATWYSRFSRGDYDYWGQGTLVTVSS	high polyreactivity
QVQLVESGGGLVQAGGSLRLSCAASGRIFQWYAMGSYRQAPGKERELVATISDGDSTNYADSVKGRFTISRDNAKNTVFAQMNSLKTEDTEVYYCAALDSYYDSYYWYDYWGQGTQVTVSS	high polyreactivity
QVQLVDSGGAVVQAGGSLRLSCAASGYTFYRYAMGWYRQAPGKERELVAAMSRRGTRTYYADSVKGRFTISRDNAKNTVYLQMNSLKPEDTAVYFCNARRVRDVWWQLKRGDYWGQATQVTVSS	high polyreactivity

Continue with the sequence presented below.
So what does the record say about polyreactivity (PSR sort gate) for QVQLVESGGGLVQAGGSLRLSCAASAFIYSFNAMGWYSQAPGKERELVAAISRSGGSTRYADSVKGRFTISRDTAKNTVYLQMNSLKPEYTAVYYCATDASPVRKRYDYWGQGTQVTVSS ? high polyreactivity

###

Assay: yeast display, Sf9 membrane polyspecificity reagent, FACS + sequencing; frameworks hold sequencing errors
assay endpoint: polyreactivity (PSR sort gate)

Check out these entries, answers already filled in.
ordered residues	polyreactivity (PSR sort gate)
QVQLVESGGGLVQAGVSLRLSCAASGFTFDYYAMGWYRQAPGKERELVAAISWSGGSTYYADSVKGRFTISRDNAKNTVFLQMNSLKPEDTAVYYCAGGRPNPRGRGLAYDFWVQGTQVTVSS	high polyreactivity
QVQLVESGGCLVQAGGSLRLSCAASGLIFRKYARGWSRQAPGKERELVAAISVSGGSTYYADSVKGRFTISRDNAKNTVYLQMNSLKPEDTAVYYCAATDFGRRGGSFYYWGQGTQVTVSS	high polyreactivity
QVQLVESGGGLVQARGSLRLSCAASGRIFYFYAMGWYRQAPGKERELVAAITESTSSTYYADSVKGRFTISRDNAKNTVYLQMNSLKPEDTAVYYCAARVSQWLPYGGSSRYYYWGQGTQVTVSS	high polyreactivity
QVQLVESGGGLVQAGGSLRLSCAASGSTSYGYAMGWYRQAPGKERELVAAISRTDRTYYADSVKGRFTISRDNAKNTVYLQMNSLKPEDTAVYYCTAVLVGRAEYYYWGQGTQVTVSS	high polyreactivity

So what does the record say about polyreactivity (PSR sort gate) for QVQLEESGGRLVQAGGSLRLSCAASGGIFADYAMGWDRPAPGKERELVADISARGGSTYYADSVKGRFTISRDNAKNTVYLQMNSLKPEDTAVYYCAADALGYDYYYWGQGTQVTVSS ? low polyreactivity

Input QVHLVESGGGLVQAGGSLRLSCAASGLIFYRYAMGWYRQAPGKERELVATISRGGRTYYADSVKGRFTNSRDNAKNTVYLQMNSLKPEDTAVYYCNADRQWYSIGSWEYDYWGQGTQVTVSS high polyreactivity

Input QVQLVESGGGLVQAGGSLRLSCAPSGITFFYNTMGWYRQAPGKERELVAAISVSGGGTYYADSVKARFTISRDNAKNTVYLQMNSLKPEDTAVYYCNKVQVRQRRYDYWGQGTQVTVSS low polyreactivity

Input QVQLVESGGGLVQAGGSLRLSCAASGSTFGVYAMGWYRQAPGKEREFVAAISSSDGSTYYADSVKGRFTISRDNAKNTVYLQMNSLKPEDTAVYYCAKRGGYIYYAVTFTAEHGYWGQGTQVTVSS low polyreactivity

Input QVHLVESGGGLVQAGGSLRLSCAASGRTFYYYAMGWYRQAPGKERELVAAISGSGTNTYYADSVKGRFTISRDNAKNTVYLQMNRLKPEDTAVYYCAAEYFGFYTDGGVFDLYYWGQGTQVTVSS low polyreactivity

Input QVQLVESGGCLVQAGGTLRLSCAASGSIFWAYAMGWYRQAPGKERELVAAISRGGTTTYADSVKGRFTISRDNAKNTVYLQMNSLKPEDTAVYYCARRAVYSKRRYDYWGQGTQVTVSS low polyreactivity

Input QVQLVEAGGGLVQAGGSLRLSCAASGSTFRWNAMGWYRQAPGKERELVAAITRSGGSTYYADSVKGRFTISRDNAKNTFYLQMNSLKPEDTAVYYCAAGYFTARRIRYDYWGQGTQVTVSS high polyreactivity

Input QVQLVESGGGLVQAGGSLRLSCAASGSNFTYYALGWYRQAPGKERELVAAISKTGGRTYYADSVKGRFTISRDNAKNTVYLQMNSLKPEDTAVYYWAAEAPWQWYGWLRGYDFCGQGTQVTVSS high polyreactivity

Numbers sourced from the nanobody polyreactivity screen of Harvey et al. (2022).
